// data source = patent US20240059769A1

# system_under_test: T1, recombinant human IL-13 (human, UniProt P35225 35-146)
# T1 construct: also called rh-IL-13; hIL-13
# protocol_details: SPR
measured_endpoint: kon (M⁻¹ s⁻¹)
# output: bare number, implied unit M⁻¹ s⁻¹

Take a look at these entries with their results.
binder: BDG38.090 (antibody, V domains shown, IgG1) VH: QMQLVESGGGVVQPGRSLTLSCAASGFEFRTYGMHWVRQAPGKGLEWLGVIWDDGSNTHYADSVKGRFTITRDNSKNTLNLQMNSLRVEDTAVYYCARAPQWYLTAEAFDLWGQGTMVTVSS VL: SYILTQPPSVSVAPGETARITCGGNLIGARLVHWYQQKPGQAPVLVVYDDSDRPSRIPERFSGSNIGNTATLTIEDVEEGDEADYYCQVWDYYSDHMVFGGGTKLTVL
unit_info: M⁻¹ s⁻¹
kon: 6.57e+06
--
binder: BDG38.094 (antibody, V domains shown, IgG1) VH: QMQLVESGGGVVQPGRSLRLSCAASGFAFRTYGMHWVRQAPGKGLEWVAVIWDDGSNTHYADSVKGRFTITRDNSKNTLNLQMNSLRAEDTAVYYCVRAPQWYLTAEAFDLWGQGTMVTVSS VL: SYVLTQPPSVSVAPGETASITCGGNLIGAYLVHWYQQKPGQAPLLVIYDDVDRPARIPERFSGSNSGNTATLTISRVEAGDEADYYCQVWDHNSNHMVFGGGTKLTVL
unit_info: M⁻¹ s⁻¹
kon: 6.77e+06
--
binder: BDG38.116 (antibody, V domains shown, IgG1) VH: QMQLVESGGGVVQPGRSLTLSCAASGFEFRTYGMHWVRQAPGKGLEWVAVIWDDGSNTHYADSVKGRFTITRDNSKNTLNLQMNSLRVEDTAVYYCVRAPQWYLTAEAFDLWGQGTMVTVSS VL: SYVLTQPPSVSVAPGQTATITCGGNLIGARLVHWYQQKPGQAPVLVIYDDSDRPSRIPERFSGSNIGNTATLTIERVEAGDEADYYCQVWDYYSDTMVFGGGTKLTVL
unit_info: M⁻¹ s⁻¹
kon: 5.51e+06
--
binder: BDG38.110 (antibody, V domains shown, IgG1) VH: QMQLVESGGGVVQPGRSLRLSCAASGFEFRTYGMHWVRQAPGKGLEWVAVIWDDGSNTHYADSVKGRFTITRDNSKNTLNLQMNSLRAEDTAVYYCVRAPQWYLTAEAFDLWGQGTMVTVSS VL: SYILTQPPSVSVAPGETTRITCGGNLIGAKLVHWYQQKPGQAPVLVIYDDSDRPSRIPERFSGSNIGNTATLTIEDVEAGDEADYYCQVWDYSSNHMVFGGGTKLTVL
unit_info: M⁻¹ s⁻¹
kon: 5.75e+06
--
binder: BDG38.106 (antibody, V domains shown, IgG1) VH: QMQLVESGGGVVQPGRSLTLSCAASGFEFRTYGMHWVRQAPGKGLEWVAVIWDDGSNTVYADSVKGRFTITRDNSKNTLNLQMNSLRVEDTAVYYCVRAPQWYLTAEAFDLWGQGTMVTVSS VL: SYILTQPPSVSVAPGQTATITCGGNLIGSRLVHWYQQKPGQAPVLVIYDDSDRPSRIPERFSGSNIGNTATLTIEDVEEGDEADYYCQVWDHYSDHMVFGGGTKLTVL
unit_info: M⁻¹ s⁻¹
kon: 5.93e+06

## Task Entry BDG38.115 (antibody, V domains shown, IgG1) VH: QMQLVESGGGVVQPGRSLTLSCAASGFEFRTYGMHWVRQAPGKGLEWLGVIWYDGSNTHYADSVKGRFTITRDNSKNTLNLQMNSLRAEDTAVYYCVRAPQWYLTAEAFDLWGQGTMVTVSS VL: SYILTQPPSVSVAPGQTATITCGGNLIGARLVHWYQQKPGQAPVLVIYDDSDRPSRIPERFSGSNSGNTATLTISDVEEGDEADYYCQVWDYSSNTYVFGGGTKLTVL : reported kon = ?
## Result 3.63e+06

## Task Entry BDG38.107 (antibody, V domains shown, IgG1) VH: QMQLVESGGGVVQPGRSLTLSCAASGFEFRTYGMHWVRQAPGKGLEWVGVIWYDGSNTHYADSVKGRFTITRDNSKNTLNLQMNSLRAEDTAVYYCVRAPQWYLTAEAFDLWGQGTMVTVSS VL: SYILTQPPSVSVAPGQTATITCGGNLIGARLVHWYQQKPGQAPVLVIYDDSDRPSRIPERFSGSNIGNTATLTIERVEEGDEADYYCQVWDYSSDSYVFGGGTKLTVL : reported kon = ?
## Result 7.36e+06

## Task Entry BDG38.096 (antibody, V domains shown, IgG1) VH: QMQLVESGGGVVQPGRSLRLSCAASGFEFRTYGMHWVRQAPGKGLEWVAVIWDDGSNTHYADSVKGRFTITRDNSKNTLNLQMNSLRVEDTAVYYCVRAPQWYLTAEAFDLWGQGTMVTVSS VL: SYILTQPPSVSVAPGETARITCGGNLIGARLVHWYQQKPGQAPVLVIYDDSDRPSRIPERFSGSNIGNTATLTISRVEEGDEADYYCQVWDYSSDSMVFGGGTKLTVL : reported kon = ?
## Result 6.19e+06

## Task Entry BDG38.112 (antibody, V domains shown, IgG1) VH: QMQLVESGGGVVQPGRSLRLSCAASGFEFRTYGMHWVRQAPGKGLEWLGVIWYDGSNTHYADSVKGRFTITRDNSKNTLNLQMNSLRAEDTAVYYCVRAPQWYLTAEAFDLWGQGTMVTVSS VL: SYILTQPPSVSVAPGQTATITCGGNLIGARLVHWYQQKPGQAPVLVIYDDSDRPSRIPERFSGSNIGNTATLTIERVEEGDEADYYCQVWDYSSDTYVFGGGTKLTVL : reported kon = ?
## Result 2.32e+06

## Task Entry BDG38.076 (antibody, V domains shown, IgG1) VH: QMQLVESGGGVVQPGRSLRLSCAASGFAFRTYGMHWVRQAPGKGLEWVAVIWDDGSATHYADSVKGRFTITRDNSKNTLNLQMNSLRAEDTAVYYCVRAPQWYLTAEAFDLWGQGTMVTVSS VL: SYVLTQPPSVSVAPGETASITCGGNMIGGYLVHWYQQKPGQAPLLVIYDDVDRPARIPERFSGSNSGNTATLTISRVEAGDEADYYCQVWDHDTNHMVFGGGTKLTVL : reported kon = ?
## Result 6.53e+06
